System: Crude diglycosidase
Experiment: Examination of substrate concentration in the conversion into isoflavone aglycons by diglycosidase using soybean materials;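 note: percent of the isoflavone family total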
Format: biochemical, Penicillium multicolor IAM7153
Conditions: concentrated soybean protein, substrate concentration 20%, heat treatment of enzyme no, reaction time 0 h
Metric: Decomposition efficiency: ratio of each glycoside/aglycon within its isoflavone family

O=c1c(-c2ccc(O)cc2)coc2cc(O[C@@H]3O[C@H](CO)[C@@H](O)[C@H](O)[C@H]3O)ccc12 [diadzin] ... 52.9%
O=C(O)CC(=O)OC[C@H]1O[C@@H](Oc2ccc3c(=O)c(-c4ccc(O)cc4)coc3c2)[C@H](O)[C@@H](O)[C@@H]1O [malonydaidzin] ... not detected
O=C(O)CC(=O)OC[C@H]1O[C@@H](Oc2cc(O)c3c(=O)c(-c4ccc(O)cc4)coc3c2)[C@H](O)[C@@H](O)[C@@H]1O [malonylgenistin, 6″-O-malonylgenistin] ... not detected

----------
Test system: Crude diglycosidase
Test: Examination of temperature in the conversion into isoflavone aglycons by diglycosidase using soybean materials
Type: biochemical, Penicillium multicolor IAM7153
Conditions: 45 °C; heat treatment of enzyme: no; 6 h
Metric: Decomposition efficiency of glycitin family in concentrated soybean protein
Reply with the number and its unit after it.

Entry under test: `COc1cc2c(=O)c(-c3ccc(O)cc3)coc2cc1O[C@@H]1O[C@H](CO)[C@@H](O)[C@H](O)[C@H]1O` . Its Decomposition efficiency of glycitin family in concentrated soybean protein was 7.5%

Sample `COc1cc2c(=O)c(-c3ccc(O)cc3)coc2cc1O` ; Decomposition efficiency of glycitin family in concentrated soybean protein observed: 64.9%

Data point: `COc1cc2c(=O)c(-c3ccc(O)cc3)coc2cc1O[C@@H]1O[C@H](COC(=O)CC(=O)O)[C@@H](O)[C@H](O)[C@H]1O` ; Decomposition efficiency of glycitin family in concentrated soybean protein = 0.6%

// Decomposition efficiency of glycitin family in concentrated soybean protein lookup, compound = `COc1cc2c(=O)c(-c3ccc(O)cc3)coc2cc1O[C@@H]1O[C@H](COC(C)=O)[C@@H](O)[C@H](O)[C@H]1O` , result: 27.1%

----------
Answer each item with its documented Decomposition efficiency of daidzin family in concentrated soybean protein.
System: Crude diglycosidase
Assay: Examination of temperature in the conversion into isoflavone aglycons by diglycosidase using soybean materials
Assay type: biochemical, Penicillium multicolor IAM7153
Conditions: 65° C., heat treatment of enzyme no, reaction time 6 h
Respond numerically; units are % and should not be typed.

Decomposition efficiency of daidzin family in concentrated soybean protein measured on O=c1c(-c2ccc(O)cc2)coc2cc(O)ccc12 [daidzein] = 56.7

Decomposition efficiency of daidzin family in concentrated soybean protein reading for O=c1c(-c2ccc(O)cc2)coc2cc(O[C@@H]3O[C@H](CO)[C@@H](O)[C@H](O)[C@H]3O)ccc12 [daidzin] : 1.7

Notebook: CC(=O)OC[C@H]1O[C@@H](Oc2ccc3c(=O)c(-c4ccc(O)cc4)coc3c2)[C@H](O)[C@@H](O)[C@@H]1O [acetyldaidzin, 6″-O-acetyldaidzin] , Decomposition efficiency of daidzin family in concentrated soybean protein read as 41.6

----------
Test system: Crude diglycosidase
Assay: Examination of temperature in the conversion into isoflavone aglycons by diglycosidase using soybean materials
Type: biochemical, Penicillium multicolor IAM7153
Parameters: concentration or dose not given beside the values
Conditions: 55 °C; heat treatment of enzyme: no; 1 h
Answer each item with its documented Decomposition efficiency of daidzin family in roasted soy flour.
Kindly provide the numeric value in % only, without the unit symbol.

Entry under test: `CC(=O)OC[C@H]1O[C@@H](Oc2ccc3c(=O)c(-c4ccc(O)cc4)coc3c2)[C@H](O)[C@@H](O)[C@@H]1O` . Its Decomposition efficiency of daidzin family in roasted soy flour was 42.8

The reported value for `O=c1c(-c2ccc(O)cc2)coc2cc(O)ccc12` in terms of Decomposition efficiency of daidzin family in roasted soy flour is 57.2

----------
Tested on: Crude diglycosidase
Assay: Examination of substrate concentration in the conversion into isoflavone aglycons by diglycosidase using soybean materials;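 note: percent of the isoflavone family total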
Type: biochemical, Penicillium multicolor IAM7153
Details: soymilk, substrate concentration 30%, heat treatment of enzyme no, reaction time 1 h
Metric: Decomposition efficiency: ratio of each glycoside/aglycon within its isoflavone family (%)
Return type: number; implicit unit %.

The measured Decomposition efficiency: ratio of each glycoside/aglycon within its isoflavone family associated with COc1cc2c(=O)c(-c3ccc(O)cc3)coc2cc1O[C@@H]1O[C@H](COC(=O)CC(=O)O)[C@@H](O)[C@H](O)[C@H]1O [malonylglycitin, 6″-O-malonylglycitin] reads 33.1

So for O=C(O)CC(=O)OC[C@H]1O[C@@H](Oc2cc(O)c3c(=O)c(-c4ccc(O)cc4)coc3c2)[C@H](O)[C@@H](O)[C@@H]1O [malonylgenistin, 6″-O-malonylgenistin] , the logged Decomposition efficiency: ratio of each glycoside/aglycon within its isoflavone family turned out to be 42.5

----------
Tested on: Crude diglycosidase
Assay: Examination of temperature in the conversion into isoflavone aglycons by diglycosidase using soybean materials
Type: biochemical, Penicillium multicolor IAM7153
Conditions: 45 °C; heat treatment of enzyme: no; 0 h
Metric: Decomposition efficiency of glycitin family in soymilk (%)
Give a bare numeral; the unit % is implied.

Consider COc1cc2c(=O)c(-c3ccc(O)cc3)coc2cc1O [glycitein] . Its measured Decomposition efficiency of glycitin family in soymilk is 8.2

Form field Decomposition efficiency of glycitin family in soymilk, entry COc1cc2c(=O)c(-c3ccc(O)cc3)coc2cc1O[C@@H]1O[C@H](COC(=O)CC(=O)O)[C@@H](O)[C@H](O)[C@H]1O [malonylglycitin, 6″-O-malonylglycitin] : 49.1

Form field Decomposition efficiency of glycitin family in soymilk, entry COc1cc2c(=O)c(-c3ccc(O)cc3)coc2cc1O[C@@H]1O[C@H](CO)[C@@H](O)[C@H](O)[C@H]1O [glycitin] : 42.6

----------
Test system: Crude diglycosidase
Experiment: Examination of pH in the conversion into isoflavone aglycons by diglycosidase using soybean materials
Format: biochemical, Penicillium multicolor IAM7153
Conditions: pH2, heat treatment of enzyme no, reaction time 3 h, 55° C.
Metric: Decomposition efficiency of daidzin family in roasted soy flour
Number only, please.

# Decomposition efficiency of daidzin family in roasted soy flour (molecule: `O=c1c(-c2ccc(O)cc2)coc2cc(O)ccc12` ) is 4.8

Decomposition efficiency of daidzin family in roasted soy flour measured on `O=c1c(-c2ccc(O)cc2)coc2cc(O[C@@H]3O[C@H](CO)[C@@H](O)[C@H](O)[C@H]3O)ccc12` = 50.3

Consider `CC(=O)OC[C@H]1O[C@@H](Oc2ccc3c(=O)c(-c4ccc(O)cc4)coc3c2)[C@H](O)[C@@H](O)[C@@H]1O` . Its measured Decomposition efficiency of daidzin family in roasted soy flour is 45.0

----------
Tested on: Crude diglycosidase
Assay: Examination of pH in the conversion into isoflavone aglycons by diglycosidase using soybean materials
Format: biochemical, Penicillium multicolor IAM7153
Settings: pH6.5, heat treatment of enzyme no, reaction time 1 h, 55° C.
Exercise: for every item that follows, state its recorded Decomposition efficiency of daidzin family in roasted soy flour.
Simply state the number, no unit and no words.

Record O=c1c(-c2ccc(O)cc2)coc2cc(O)ccc12 [daidzein] has Crude diglycosidase Decomposition efficiency of daidzin family in roasted soy flour equal to 54.6

Known value: Crude diglycosidase Decomposition efficiency of daidzin family in roasted soy flour of the compound CC(=O)OC[C@H]1O[C@@H](Oc2ccc3c(=O)c(-c4ccc(O)cc4)coc3c2)[C@H](O)[C@@H](O)[C@@H]1O [acetyldaidzin, 6″-O-acetyldaidzin] equals 45.4

----------
Test system: Crude diglycosidase
Assay: Examination of temperature in the conversion into isoflavone aglycons by diglycosidase using soybean materials
Format: biochemical, Penicillium multicolor IAM7153
Conditions: 65° C., heat treatment of enzyme no, reaction time 0 h
Metric: Decomposition efficiency of daidzin family in concentrated soybean protein (%)
Give the number; % is assumed, so skip it.

Entry O=c1c(-c2ccc(O)cc2)coc2cc(O[C@@H]3O[C@H](CO)[C@@H](O)[C@H](O)[C@H]3O)ccc12 [daidzin] : Decomposition efficiency of daidzin family in concentrated soybean protein on Crude diglycosidase = 52.3

# value of Decomposition efficiency of daidzin family in concentrated soybean protein, Crude diglycosidase, item O=c1c(-c2ccc(O)cc2)coc2cc(O)ccc12 [daidzein] = 3.0

Summary line: CC(=O)OC[C@H]1O[C@@H](Oc2ccc3c(=O)c(-c4ccc(O)cc4)coc3c2)[C@H](O)[C@@H](O)[C@@H]1O [acetyldaidzin, 6″-O-acetyldaidzin] , Crude diglycosidase, reported Decomposition efficiency of daidzin family in concentrated soybean protein = 44.6

----------
Tested on: Crude diglycosidase
Assay: Examination of temperature in the conversion into isoflavone aglycons by diglycosidase using soybean materials
Format: biochemical, Penicillium multicolor IAM7153
Set-up: concentration or dose not given beside the values
Conditions: 30° C., heat treatment of enzyme no, reaction time 3 h
Method: Into 400 μL of 20 mM acetate buffer of pH 4.0 was suspended 50 mg of each of various soybean materials (roasted soy flour (manufactured by Fuji Shokuryo K.K.), soymilk (manufactured by Gitoh Shokuhin K.K.), defatted soybean (manufactured by Fuji Seiyu K.K.), concentrated soybean protein (manufactured by Fuji Seiyu K.K.)), whereby a substrate solution was prepared. Crude diglycosidase was diluted with 20 mM acetate buffer of pH 4.0 to be the glycosidase activity of 1.88 AU/mL. […]
Metric: Decomposition efficiency of daidzin family in defatted soybean

O=c1c(-c2ccc(O)cc2)coc2cc(O[C@@H]3O[C@H](CO)[C@@H](O)[C@H](O)[C@H]3O)ccc12 [daidzin] ... not detected
O=C(O)CC(=O)OC[C@H]1O[C@@H](Oc2ccc3c(=O)c(-c4ccc(O)cc4)coc3c2)[C@H](O)[C@@H](O)[C@@H]1O [malonyldaidzin, 6″-O-malonyldaidzin] ... 45.2%
O=c1c(-c2ccc(O)cc2)coc2cc(O)ccc12 [daidzein] ... 54.8%
CC(=O)OC[C@H]1O[C@@H](Oc2ccc3c(=O)c(-c4ccc(O)cc4)coc3c2)[C@H](O)[C@@H](O)[C@@H]1O [acetyldaidzin, 6″-O-acetyldaidzin] ... not detected
